So I've got a bunch of compounds here, and I need their IC50 values.
# SYSTEM NAME: full length Keap1 protein / full length NRF2 protein (Homo sapiens, UniProt Q14145)
# Construct: full length NRF2 protein and full length Keap1 protein (Keap1 exists a dimer) are used; His
# Sequence (Q14145 whole entry): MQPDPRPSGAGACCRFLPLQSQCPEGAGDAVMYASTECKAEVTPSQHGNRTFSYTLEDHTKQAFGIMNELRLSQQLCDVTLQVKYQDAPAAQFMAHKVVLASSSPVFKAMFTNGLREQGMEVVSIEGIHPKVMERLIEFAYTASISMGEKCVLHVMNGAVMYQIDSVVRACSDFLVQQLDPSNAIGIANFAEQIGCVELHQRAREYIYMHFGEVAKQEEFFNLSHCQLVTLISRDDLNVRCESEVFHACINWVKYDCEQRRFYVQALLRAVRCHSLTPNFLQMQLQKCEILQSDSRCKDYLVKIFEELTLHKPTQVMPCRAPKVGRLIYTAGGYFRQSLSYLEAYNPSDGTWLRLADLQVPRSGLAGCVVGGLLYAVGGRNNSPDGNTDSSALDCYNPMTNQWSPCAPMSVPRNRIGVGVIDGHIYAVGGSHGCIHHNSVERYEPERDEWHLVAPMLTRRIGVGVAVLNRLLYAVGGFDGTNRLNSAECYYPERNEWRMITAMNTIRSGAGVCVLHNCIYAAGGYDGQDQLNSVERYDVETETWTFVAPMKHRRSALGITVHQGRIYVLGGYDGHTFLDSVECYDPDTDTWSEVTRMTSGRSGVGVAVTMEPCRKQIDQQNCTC
# MEASUREMENT PROTOCOL: NRF2-Keap1 TR-FRET Low Protein Assay
# Assay type: binding
# CONDITIONS USED: 1.25 nM Keap1 FlagHis and 2.5 nM biotin-NRF2 added

In [3]: df
Out[3]:
                                   compound       test_result
0  CCCC1CCCCN1C(=O)c1cccc(-c2cccc(-n3ncc(C(=O)O)c3C3CC3c3cccnn3)c2)c1 (stereo not shown)           < 10 nM
1  Cn1cc([C@@H]2C[C@H]2c2c(C(=O)O)cnn2-c2cccc(-c3cccc(OCCC4CCCCC4)c3)c2)nn1 (racemic)      10 to 100 nM
2  C[C@H]1Cc2ccccc2S(=O)(=O)N(Cc2cccc(-c3cccc(-n4ncc(C(=O)O)c4[C@@H]4C[C@H]4c4cn(C)nn4)c3)c2)C1           < 10 nM
3  C[C@H](Oc1cccc(-c2cccc(-n3ncc(C(=O)O)c3[C@H]3C[C@H]3c3cn(C)nn3)c2)c1)C1CCCCC1 (racemic)  1000 to 10000 nM
4  Cn1cc([C@@H]2C[C@H]2c2c(C(=O)O)cnn2-c2cccc(-c3cccc(-n4ncc5c4C(C)(C)CC5)c3)n2)nn1 (racemic)           < 10 nM
5  Cn1cc([C@@H]2C[C@H]2c2c(C(=O)O)cnn2-c2cccc(-c3cccc(OC[C@H]4CC[C@H](C(F)(F)F)CC4)c3)c2)nn1 (racemic)      10 to 100 nM
6  Cn1cc([C@@H]2C[C@H]2c2c(C(=O)O)cnn2-c2cccc(-c3cccc(/C=C/C4CCCCC4)c3)c2)nn1 (racemic)    100 to 1000 nM
7  CC[C@@H]1COc2ccccc2CN1Cc1cccc(-c2cccc(-n3ncc(C(=O)O)c3[C@@H]3C[C@H]3c3cn(C)nn3)c2)c1           < 10 nM
8  Cn1cc([C@H]2C[C@@H]2c2c(C(=O)O)cnn2-c2cccc(-c3cccc(OCC4CCCC(Cl)C4)c3)c2)nn1 (mixture of isomers)      10 to 100 nM
9  O=C(O)c1cnn(-c2cccc(-c3cccc(C(=O)N4CCCCC4C4CCCC4)c3F)c2)c1C1CC1 (stereo not shown)      10 to 100 nM

Batch lookup, IC50 per entry.
1. C[C@H](Oc1cccc(-c2cccc(-n3ncc(C(=O)O)c3[C@H]3C[C@@H]3c3cn(C4CCOCC4)nn3)c2)c1)C1CCCCC1
2. CCC[C@@H]1CCCCN1C(=O)c1cccc(-c2cc(Cl)cc(-n3ncc(C(=O)O)c3C3CC3c3cn(C)nn3)c2)c1 (stereo partly shown)
3. C[C@H](Oc1cccc(-c2cccc(-n3ncc(C(=O)O)c3[C@@H]3C[C@H]3c3cn(C4CCOCC4)nn3)c2)c1)C1CCCCC1
4. CC(Oc1cccc(-c2cccc(-n3ncc(C(=O)O)c3[C@@H]3C[C@H]3c3cn(C)nn3)n2)c1)C1CCCCC1 (relative stereo)
5. CCC1COc2ccccc2CN1Cc1cccc(-c2cccc(-n3ncc(C(=O)O)c3[C@H]3C[C@@H]3c3cn(C)nn3)c2)c1 (mixture of isomers)
6. Cn1cc([C@@H]2C[C@H]2c2c(C(=O)O)cnn2-c2cccc(-c3cccc(OCC4CCCCC4)c3)c2)nn1

Return:
["100 to 1000 nM", "< 10 nM", "< 10 nM", "< 10 nM", "< 10 nM", "10 to 100 nM"]

Batch lookup, IC50 per entry.
1. CCC1Cc2ccccc2CN(Cc2cccc(-c3cccc(-n4ncc(C(=O)O)c4[C@@H]4C[C@H]4c4cn(C)nn4)c3)c2)C1 (relative stereo)
2. CCn1cc([C@H]2C[C@@H]2c2c(C(=O)O)cnn2-c2cc(OC)cc(-c3cccc(OC(C)C4CCCCC4)c3)c2)nn1 (stereo partly shown)
3. C[C@H](Oc1cccc(-c2cccc(-n3ncc(C(=O)O)c3[C@@H]3C[C@H]3c3cn(C4CN(C(=O)OC(C)(C)C)C4)nn3)c2)c1)C1CCCCC1 (racemic)

Return:
1: 10 to 100 nM; 2: 100 to 1000 nM; 3: 10 to 100 nM

----------
So I've got a bunch of molecules here, and I need their pIC50 values.
# SYSTEM NAME: Keap1 Kelch domain (321-609) / TAMRA-labeled 16mer NRF2 peptide (ETGE motif) (Homo sapiens)
# Construct: the Kelch domain (321-609) of Keap1 is used
# Sequence (Q14145 321-609): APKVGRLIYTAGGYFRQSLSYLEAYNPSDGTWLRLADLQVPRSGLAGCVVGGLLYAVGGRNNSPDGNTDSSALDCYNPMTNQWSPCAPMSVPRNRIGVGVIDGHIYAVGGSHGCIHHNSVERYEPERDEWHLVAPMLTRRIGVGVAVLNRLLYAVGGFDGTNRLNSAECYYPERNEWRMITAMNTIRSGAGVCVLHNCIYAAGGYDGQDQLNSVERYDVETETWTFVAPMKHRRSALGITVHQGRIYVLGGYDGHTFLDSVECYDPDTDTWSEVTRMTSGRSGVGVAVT
# MEASUREMENT PROTOCOL: NRF2-Keap1 FP Assay (Keap1 Kelch fluorescence polarization)
# CONDITIONS USED: 20 nM Keap1 (321-609), 8 nM Tamra labeled peptide
pIC50: −log10 of the molar value.

>>> print(df.to_string())
                                   molecule   test_result
0  Cn1cc([C@H]2C[C@@H]2c2c(C(=O)O)cnn2-c2cccc(-c3cccc(OCc4cccc(-c5ccccc5)c4)c3)c2)nn1 (racemic)  6.00 to 7.00
1  Cn1cc([C@@H]2C[C@H]2c2c(C(=O)O)cnn2-c2cccc(-c3cccc(OCC4CCC(F)(F)CC4)c3)c2)nn1 (racemic)  7.00 to 8.00
2  C[C@@H]1CCC[C@H](C)N1C(=O)c1cccc(-c2cccc(-n3ncc(C(=O)O)c3[C@@H]3C[C@H]3c3cn(C)nn3)c2)c1F (single isomer, unassigned)  7.00 to 8.00
3  CCC[C@@H]1CCCCN1C(=O)c1cccc(-c2cccc(-n3ncc(C(=O)O)c3[C@H]3C[C@@H]3c3cn(C)nn3)c2)c1 [Example 51g]  6.00 to 7.00
4  Cn1cc(C2CC2c2c(C(=O)O)cnn2-c2cccc(-c3cccc(OCC4CCOCC4)c3)c2)nn1 (stereo not drawn)  7.00 to 8.00

Batch lookup, pIC50 per entry.
1. CCCCC1CCc2cnn(-c3cccc(-c4cccc(-n5ncc(C(=O)O)c5C5CC5)c4)c3)c21 (stereo not drawn)
2. Cn1cc(CCc2c(C(=O)O)cnn2-c2cccc(-c3cccc(OCC4CCCCC4)c3)c2)nn1
3. O=C(O)c1cnn(-c2cccc(-c3cccc(C(=O)N4CCCC5CCCCC54)c3F)c2)c1C1CC1 (stereo not drawn)

Return:
1. 6.00 to 7.00
2. 5.00 to 6.00
3. 6.00 to 7.00

----------
So I've got a bunch of molecules here, and I need their pIC50 values.
# SYSTEM NAME: full length Keap1 protein / full length NRF2 protein (Homo sapiens, UniProt Q14145)
# Construct: full length NRF2 protein and full length Keap1 protein (Keap1 exists a dimer) are used; His
# MEASUREMENT PROTOCOL: NRF2-Keap1 TR-FRET Low Protein Assay
# Assay type: binding
# CONDITIONS USED: 1.25 nM Keap1 FlagHis and 2.5 nM biotin-NRF2 added
pIC50: −log10 of the molar value.

>>> df
                                   molecule                               system_name  test_result
0  CCC[C@@H]1CCCCN1C(=O)c1cccc(-c2cccc(-n3ncc(C(=O)O)c3C3CC3c3cn(C)nn3)n2)c1 (stereo partly drawn)  full length Keap1 protein / full length NRF2 protein (Homo sapiens, UniProt Q14145)       > 8.00

Batch lookup, pIC50 per entry.
1. Cn1cc([C@@H]2C[C@H]2c2c(C(=O)O)cnn2-c2cccc(-c3cncc(OCC4CCCCC4)c3)c2)nn1 (racemic)
2. CCOC(=O)c1cnn(-c2cccc(-c3cccc(O[C@@H](C)C4CCCCC4)c3)c2)c1[C@@H]1C[C@H]1c1cn(C)nn1
3. CC(Oc1cccc(-c2cccc(-n3ncc(C(=O)O)c3[C@@H]3C[C@H]3c3cn(C)nn3)c2)c1)C1CCCCC1 (stereo partly drawn)
4. CCC[C@@H]1CCCCN1C(=O)c1cccc(-c2cccc(-n3ncc(C(=O)O)c3C3CC3(F)F)c2)c1 (stereo partly drawn)
5. CC(Oc1cccc(-c2cccc(-n3ncc(C(=O)O)c3[C@H]3C[C@@H]3c3cn(C)nn3)c2)c1)c1ccc(-c2ccccc2)cc1 (mixture of isomers)

Return:
1: 6.00 to 7.00; 2: 5.00 to 6.00; 3: 6.00 to 7.00; 4: 7.00 to 8.00; 5: 6.00 to 7.00

----------
So I've got a bunch of molecules here, and I need their pIC50 values.
# SYSTEM NAME: full length Keap1 protein / full length NRF2 protein (Homo sapiens)
# Construct: full length NRF2 protein and full length Keap1 protein (Keap1 exists a dimer) are used; His
# MEASUREMENT PROTOCOL: NRF2-Keap1 TR-FRET Low Protein Assay
# Assay type: binding
# CONDITIONS USED: 1.25 nM Keap1 FlagHis and 2.5 nM biotin-NRF2 added
pIC50: −log10 of the molar value.

Below are worked cases with known answers.
>>> df
                                   molecule                               system_name  measured_endpoint   test_result
0  Cn1cc(C2CC2c2c(C(=O)O)cnn2-c2cccc(-c3cccc(C(O)CC4CCCCC4)c3)c2)nn1 (stereo not shown)  full length Keap1 protein / full length NRF2 protein (Homo sapiens)              pIC50  7.00 to 8.00
1  CCOC[C@@H]1CCCN1C(=O)c1cccc(-c2cccc(-n3ncc(C(=O)O)c3[C@@H]3C[C@H]3c3cn(C)nn3)c2)c1F  full length Keap1 protein / full length NRF2 protein (Homo sapiens)              pIC50        > 8.00
2  Cc1nnc(-c2cccc(-c3cccc(-n4ncc(C(=O)O)c4C4CC4)c3)c2)o1  full length Keap1 protein / full length NRF2 protein (Homo sapiens)              pIC50  4.00 to 5.00
3  CC[C@@H]1CN(Cc2cccc(-c3cccc(-n4ncc(C(=O)O)c4[C@@H]4C[C@H]4c4cn(C)nn4)c3)c2)S(=O)(=O)c2ccccc2O1  full length Keap1 protein / full length NRF2 protein (Homo sapiens)              pIC50        > 8.00

Batch lookup, pIC50 per entry.
1. CC(C)Oc1cccc(-c2cccc(-n3ncc(C(=O)O)c3C3CC3c3cn(C)nn3)c2)c1 (stereo not shown)
2. Cn1cc([C@H]2C[C@@H]2c2c(C(=O)O)cnn2-c2cccc(-c3cccc(C(=O)N4CCCCCC4)c3F)c2)nn1 (racemic)
3. CC(Oc1cccc(-c2cccc(-n3ncc(C(=O)O)c3C3CC3c3cn(C)nn3)c2)c1)C1CCOCC1 (stereo not shown)

Return:
1. 6.00 to 7.00
2. > 8.00
3. 7.00 to 8.00

Reference for the values: patent US10364256B2
